Biological target: UniProt:P52333
Experiment: JAK 3 enzymatic inhibitory activity IC50 assay (Caliper conversion rate)
Type: biochemical
Details: Km ATP, 28° C., 1 hour; read-out: JAK 3 enzymatic inhibitory activity IC50
Protocol: Biological effect: intracytoplasmic JAK 1,2,3 enzymatic inhibitory activity IC50 assay JAK1 buffer solution: 25 mM HEPES, pH 7.5, 0.01% Brij-35, 0.01 M Triton. JAK2,3 buffer solution: 50 mM HEPES, pH 7.5, 0.0015% Brij-35. 2. Compound was formulated in 100% DMSO in a concentration gradient, deposited to a 384-well plate with a final concentration of 2% of DMSO. 3. […] 5. Read the conversion rate by Caliper Reader, and the inhibition rate are calculated according to the average of two tests.
pIC50: −log10 of the molar value.
ASSAY READOUT: pIC50

>>> value("N#CCC(C1CCCC1)n1cc(-c2nc(Nc3ccccc3)nc3ccsc23)cn1 (stereo not shown) [Compound T-03]")
"< 6.00"
>>> value("CCS(=O)(=O)N1CC(CC#N)(n2cc(-c3nc(Nc4ccc(S(C)(=O)=O)cc4)nc4ccsc34)cn2)C1 [Compound T-12]")
"6.30 to 7.30"
>>> value("CCn1cc(Nc2nc(-c3cnn(C4(CC#N)CN(S(=O)(=O)CC)C4)c3)c3sccc3n2)cn1 [Compound T-40]")
"> 7.30"

Give pIC50 (UniProt:P52333) of the following compound: CCS(=O)(=O)N1CC(CC#N)(n2cc(-c3nc(Nc4ccc(OCCN5CCCC5)cc4)nc4ccsc34)cn2)C1 [Compound T-09]
6.30 to 7.30

----------
Some compounds, each annotated with its measured IC50.
Molecular target: UniProt:P52333
Sequence (P52333 1-1124): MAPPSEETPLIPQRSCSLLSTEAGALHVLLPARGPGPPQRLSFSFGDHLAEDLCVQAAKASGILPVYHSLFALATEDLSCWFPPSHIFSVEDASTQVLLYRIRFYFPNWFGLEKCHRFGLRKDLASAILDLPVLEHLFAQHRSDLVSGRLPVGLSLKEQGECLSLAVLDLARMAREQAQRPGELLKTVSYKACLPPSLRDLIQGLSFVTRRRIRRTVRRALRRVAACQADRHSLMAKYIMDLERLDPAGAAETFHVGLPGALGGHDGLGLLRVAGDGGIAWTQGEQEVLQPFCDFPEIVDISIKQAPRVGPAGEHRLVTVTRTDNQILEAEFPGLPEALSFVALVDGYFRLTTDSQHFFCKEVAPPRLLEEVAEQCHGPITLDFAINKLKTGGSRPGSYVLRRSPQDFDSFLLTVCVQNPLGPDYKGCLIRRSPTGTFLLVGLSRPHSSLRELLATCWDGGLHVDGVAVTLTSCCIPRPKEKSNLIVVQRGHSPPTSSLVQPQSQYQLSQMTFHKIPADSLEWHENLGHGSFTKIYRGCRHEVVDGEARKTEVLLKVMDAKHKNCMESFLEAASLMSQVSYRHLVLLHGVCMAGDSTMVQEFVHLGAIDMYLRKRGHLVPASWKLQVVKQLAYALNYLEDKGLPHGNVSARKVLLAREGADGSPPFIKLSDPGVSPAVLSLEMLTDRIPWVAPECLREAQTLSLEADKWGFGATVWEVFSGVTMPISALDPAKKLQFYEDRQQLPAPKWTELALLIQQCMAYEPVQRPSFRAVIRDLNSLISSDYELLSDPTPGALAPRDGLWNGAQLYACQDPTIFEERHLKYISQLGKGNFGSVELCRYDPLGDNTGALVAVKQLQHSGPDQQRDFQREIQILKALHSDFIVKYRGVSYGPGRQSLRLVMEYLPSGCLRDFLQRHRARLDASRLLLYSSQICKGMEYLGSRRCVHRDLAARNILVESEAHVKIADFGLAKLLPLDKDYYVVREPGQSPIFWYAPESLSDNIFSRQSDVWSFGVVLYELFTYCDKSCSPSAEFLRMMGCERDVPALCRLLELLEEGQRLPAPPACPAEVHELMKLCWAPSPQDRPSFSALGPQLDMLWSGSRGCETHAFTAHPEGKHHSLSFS
Experiment: JAK 3 enzymatic inhibitory activity IC50 assay (Caliper conversion rate)
Assay type: biochemical
Details: Km ATP, 28° C., 1 hour; read-out: JAK 3 enzymatic inhibitory activity IC50

Illustrative cases are given below, each with its answer.
>>> value("CCS(=O)(=O)N1CC(CC#N)(n2cc(-c3nc(Nc4cnn(CCOC)c4)nc4ccsc34)cn2)C1")
"< 50 nM"
>>> value("N#CCC1(n2cc(-c3nc(Nc4ccccc4)nc4ccsc34)cn2)COC1")
"500 to 1000 nM"
>>> value("CCS(=O)(=O)N1CC(CC#N)(n2cc(-c3nc(NC(=O)C4CC4)nc4ccsc34)cn2)C1")
"> 1000 nM"
>>> value("C[C@H](O)Cn1cc(Nc2nc(-c3cnn(C4(CC#N)COC4)c3)c3sccc3n2)cn1")
"50 to 500 nM"

Field request: IC50 | item: CCS(=O)(=O)N1CC(CC#N)(n2cc(-c3nc(Nc4cnc(N5CCOCC5)nc4)nc4ccsc34)cn2)C1
500 to 1000 nM

Field request: IC50 | item: CCS(=O)(=O)N1CC(CC#N)(n2cc(-c3nc(Nc4cnn(C(C)=O)c4)nc4ccsc34)cn2)C1
50 to 500 nM

Field request: IC50 | item: CCS(=O)(=O)N1CC(CC#N)(n2cc(-c3nc(Nc4cnn(CCO)c4)nc4ccsc34)cn2)C1
< 50 nM

----------
Consider the following IC50 values measured on JAK2 (Homo sapiens, UniProt O60674).
Sequence (O60674 whole entry, species assumed): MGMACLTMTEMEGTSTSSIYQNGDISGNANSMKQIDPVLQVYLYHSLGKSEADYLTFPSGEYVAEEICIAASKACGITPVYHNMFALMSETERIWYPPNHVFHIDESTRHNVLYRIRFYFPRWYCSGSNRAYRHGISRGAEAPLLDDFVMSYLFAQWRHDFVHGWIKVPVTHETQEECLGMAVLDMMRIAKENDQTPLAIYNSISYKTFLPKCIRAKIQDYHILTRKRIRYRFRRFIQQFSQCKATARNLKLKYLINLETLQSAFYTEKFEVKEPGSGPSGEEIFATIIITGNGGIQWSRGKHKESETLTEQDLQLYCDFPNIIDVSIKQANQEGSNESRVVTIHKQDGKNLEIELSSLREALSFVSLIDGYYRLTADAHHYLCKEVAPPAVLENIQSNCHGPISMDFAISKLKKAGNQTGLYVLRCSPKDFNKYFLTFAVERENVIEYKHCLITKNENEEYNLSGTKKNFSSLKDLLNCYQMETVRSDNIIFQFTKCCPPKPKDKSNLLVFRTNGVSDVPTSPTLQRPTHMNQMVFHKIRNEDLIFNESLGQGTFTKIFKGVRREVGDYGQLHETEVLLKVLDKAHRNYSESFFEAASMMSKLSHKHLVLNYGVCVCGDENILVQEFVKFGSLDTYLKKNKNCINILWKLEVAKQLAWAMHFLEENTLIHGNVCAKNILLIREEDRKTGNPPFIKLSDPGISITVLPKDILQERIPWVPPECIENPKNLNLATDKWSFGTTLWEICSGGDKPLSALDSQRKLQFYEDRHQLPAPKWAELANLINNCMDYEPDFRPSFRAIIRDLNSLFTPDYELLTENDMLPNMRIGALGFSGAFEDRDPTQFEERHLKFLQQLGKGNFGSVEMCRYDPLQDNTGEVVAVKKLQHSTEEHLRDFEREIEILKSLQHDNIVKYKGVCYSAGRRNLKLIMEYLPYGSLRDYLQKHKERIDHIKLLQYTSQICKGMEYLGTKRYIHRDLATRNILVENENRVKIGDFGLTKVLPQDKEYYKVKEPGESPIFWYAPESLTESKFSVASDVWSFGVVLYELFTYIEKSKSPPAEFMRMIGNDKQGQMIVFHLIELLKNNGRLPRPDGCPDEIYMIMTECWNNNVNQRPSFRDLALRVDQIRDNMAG

Illustrative cases are given below, each with its answer.
>>> value("CCS(=O)(=O)N1CC(CC#N)(n2cc(-c3nc(Nc4cnn(CCC#N)c4)nc4ccsc34)cn2)C1")
"< 0.05 µM"
>>> value("CCCCOC(=O)CCn1cc(Nc2nc(-c3cnn(C4(CC#N)CN(S(=O)(=O)CC)C4)c3)c3sccc3n2)cn1")
"< 0.05 µM"
>>> value("CCS(=O)(=O)N1CC(CC#N)(n2cc(-c3nc(Nc4cnn(C5CNC5)c4)nc4ccsc34)cn2)C1")
"< 0.05 µM"

Give IC50 (JAK2 (Homo sapiens, UniProt O60674)) of the following compound: CCS(=O)(=O)N1CC(CC#N)(n2cc(-c3nc(Nc4cnn(CCCN5CCN(C)CC5)c4)nc4ccsc34)cn2)C1
< 0.05 µM

Give IC50 (JAK2 (Homo sapiens, UniProt O60674)) of the following compound: C[C@H](CO)n1cc(Nc2nc(-c3cnn(C4(CC#N)CN(S(C)(=O)=O)C4)c3)c3sccc3n2)cn1
< 0.05 µM

Give IC50 (JAK2 (Homo sapiens, UniProt O60674)) of the following compound: CCS(=O)(=O)N1CC(CC#N)(n2cc(-c3nc(Nc4cnn(C)c4)nc4ccsc34)cn2)C1
< 0.05 µM

----------
Target: JAK3 (Homo sapiens, UniProt P52333)
Sequence (P52333 1-1124): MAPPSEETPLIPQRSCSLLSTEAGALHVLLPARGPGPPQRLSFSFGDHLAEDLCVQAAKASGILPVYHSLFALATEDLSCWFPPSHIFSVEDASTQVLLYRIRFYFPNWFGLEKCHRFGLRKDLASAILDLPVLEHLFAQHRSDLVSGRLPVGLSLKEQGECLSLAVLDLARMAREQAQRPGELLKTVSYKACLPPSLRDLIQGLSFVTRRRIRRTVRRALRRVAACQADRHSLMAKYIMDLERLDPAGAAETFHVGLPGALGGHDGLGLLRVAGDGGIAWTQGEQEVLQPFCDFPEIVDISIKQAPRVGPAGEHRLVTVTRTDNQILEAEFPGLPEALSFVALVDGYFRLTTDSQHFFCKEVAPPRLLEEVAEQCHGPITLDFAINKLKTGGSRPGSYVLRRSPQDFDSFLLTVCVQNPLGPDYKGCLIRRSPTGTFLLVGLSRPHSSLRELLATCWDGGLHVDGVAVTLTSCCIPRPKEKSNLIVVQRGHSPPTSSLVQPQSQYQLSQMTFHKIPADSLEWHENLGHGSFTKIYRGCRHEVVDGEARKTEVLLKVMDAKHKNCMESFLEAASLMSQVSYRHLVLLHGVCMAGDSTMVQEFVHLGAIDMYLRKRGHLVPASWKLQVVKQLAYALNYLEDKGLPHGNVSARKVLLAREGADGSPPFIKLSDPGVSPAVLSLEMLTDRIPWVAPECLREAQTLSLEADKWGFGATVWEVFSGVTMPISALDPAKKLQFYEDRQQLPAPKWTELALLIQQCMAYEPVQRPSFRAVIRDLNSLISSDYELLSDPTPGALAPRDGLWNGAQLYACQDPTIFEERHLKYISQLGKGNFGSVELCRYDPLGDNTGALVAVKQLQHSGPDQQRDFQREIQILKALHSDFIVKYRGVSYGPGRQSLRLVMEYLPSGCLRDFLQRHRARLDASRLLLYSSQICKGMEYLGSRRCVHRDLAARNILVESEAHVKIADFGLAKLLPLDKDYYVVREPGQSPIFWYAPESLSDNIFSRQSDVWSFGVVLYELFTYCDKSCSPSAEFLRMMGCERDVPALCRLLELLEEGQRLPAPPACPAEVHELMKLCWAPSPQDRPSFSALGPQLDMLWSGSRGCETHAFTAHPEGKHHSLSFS
Test: JAK 3 enzymatic inhibitory activity IC50 assay (Caliper conversion rate)
Format: biochemical
Description: Biological effect: intracytoplasmic JAK 1,2,3 enzymatic inhibitory activity IC50 assay JAK1 buffer solution: 25 mM HEPES, pH 7.5, 0.01% Brij-35, 0.01 M Triton. JAK2,3 buffer solution: 50 mM HEPES, pH 7.5, 0.0015% Brij-35. 2. Compound was formulated in 100% DMSO in a concentration gradient, deposited to a 384-well plate with a final concentration of 2% of DMSO. 3. […] 5. Read the conversion rate by Caliper Reader, and the inhibition rate are calculated according to the average of two tests.
pIC50: −log10 of the molar value.
ASSAY READOUT: pIC50

Field request: pIC50 | item: CCS(=O)(=O)N1CC(CC#N)(n2cc(-c3cc(Nc4ccccc4)nc4ccnn34)cn2)C1
< 6.00
